System: SR leukemia
ASSAY NAME: NCI-60 one-dose screen, 48 h
CONDITION INFO: 10 µM unless noted
The panel holds about 83,000 compounds, 20% with a hit somewhere; the sample as a whole holds those more often. The source made the active and inactive calls. Rule for the calls: active = growth percent below 10; inactive = the rest.
Hello, when you answer, please use one of the following outcomes: YES (active), NO (inactive)

Give the logged outcome of this assay for the following compound: O=C(Cc1ccccc1Nc1c(Cl)cccc1Cl)NN1C(=O)/C(=C/c2ccc(Br)cc2)SC1=S NO

Lab log entry: COc1ccc(S(=O)(=O)N2CC3(COC3)C2)cc1NC(=O)c1[nH]c(C)c2c1CCCCC2=O — outcome as called in the assay? NO

Test call for this compound, please: CCCc1cc(=O)n2c(C(=O)Nc3cccc(C(=O)OCC)c3)c(C(=O)Nc3ccc(F)cc3)sc2n1 NO

// return assay outcome for CN1C(=O)C2(SCC(C(=O)NCc3ccccc3)N2C(=O)C2CCCCC2)c2ccccc21 (stereo not drawn) NO

Query: recorded result category for COc1cc(-c2nn(-c3ccc(Br)cc3)cc2C(=O)O)ccc1O in this test NO

Write down the call the test reported for this compound. Item: COc1ccc(/C=C\c2cc(OC)c(OC)c(OC)c2)cc1OC(=O)c1cccc(Cn2cc(CCOC(=O)[C@H](N)Cc3cn(C)c4ccccc34)nn2)c1 YES

Could you check what this test reported for O=C1C=C(O)C(=O)C(CC2=C(O)C(=O)C=C(O)C2=O)=C1O ? NO

Kindly provide the recorded test outcome for the following compound: CCOC(=O)c1c(C)oc2ncnc(N3CCN(C(=O)COc4ccc(SC)cc4)CC3)c12 NO

Tell me the assay call for CN(CCCCCl)P(=O)(OCc1ccc([N+](=O)[O-])o1)C(F)(F)c1ccc(CC(=O)NC[C@@H](O)/C=C\[C@@H](O)[C@H](CO)Cc2ccccc2)cc1 (stereo partly drawn) please. NO

// param item: COc1cc2c(cc1-c1c(C)noc1C)ncc1nc(C3CCCC3)n([C@H](C)COC(F)F)c12 ; yields the recorded call NO

For O=c1nc2oc3ccc4ccccc4c3cc-2s1 , what call appears in the results of this test? NO

What was the test verdict on CCCc1cc(=O)n2c(C(=O)Nc3ccc(F)cc3)c(C(=O)Nc3ccc(F)cc3)sc2n1 ? NO

Which result was noted for this compound in the test: CC(=O)Nc1ccc(-n2c(O)c(/C=N/NC(=O)Cc3ccccc3Nc3c(Cl)cccc3Cl)sc2=S)cc1 NO

What classification did COc1ccc(-c2nn(-c3ccc(Cl)cc3)cc2-c2nc3ccccc3[nH]2)cc1 end up with in this test? NO

For this compound, state the assay outcome: O=C1C=C(OCC=C(Cl)Cl)C(=O)c2ccccc21 NO

Recorded test call requested for O=[N+]([O-])c1ccccc1/C=N\NC(=S)N/N=C/c1ccccc1[N+](=O)[O-] NO

Short answer needed: outcome of this test for O=C1CC[C@H](c2ccc(O)c3c2C(=O)[C@@H]2O[C@@H]2C3=O)c2cccc(O)c21 ? YES

Field: outcome | Entry: CC(=O)NCC1c2c(n(C)c3c(Cl)c(Cl)ccc23)C(=O)NC1(C)C (stereo not drawn) NO

====

System: SK-MEL-5 melanoma
ASSAY NAME: NCI-60 one-dose screen, 48 h (100 = growth as untreated, 0 = no growth, -100 = all killed)
CONDITION INFO: 10 µM unless noted
Procedure: Growth inhibition of the SK-MEL-5 human tumor cell line is measured as a screen for anti-cancer activity. Cells are grown in 96 well plates and exposed to the test compound for 48 hours. Compounds are tested at a single concentration, which is 10^-5 M for most compounds. The reported endpoint is percent growth (GI% or GIPRCNT), where numbers from 0 - 100% represent growth inhibition, and numbers from -100% - 0 represent cell death. For example, a value of 40 represents 60% growth inhibition. […]
The panel holds about 83,000 compounds, 20% with a hit somewhere; the sample as a whole holds those more often.
REPORTED PROPERTY: growth (%)
Express it in %; write the number only.

Please fill in: growth reported for C=C1c2nc3ccccc3n2C=C(c2ccc(OC)cc2)N1Cc1ccccc1 = 87.1

Entry under test: N#Cc1cnn(-c2nc3c(Cl)cccc3s2)c1N . Its growth was 90.8

Memo: O=C1C=CC(=O)N1c1ccc2c(c1)Cc1cc(F)ccc1-2 , reported growth: 98.1

Value of growth reported for the molecule COc1ccc(-c2nc3cc(C(=O)Nc4cc(OC)c(OC)c(OC)c4)ccc3n2C2CCCCC2)cc1 is 77.8

get_value(item= CCCN1CCN(c2ccc3nc(-c4ccc5nc(-c6ccc(OCC)cc6)[nH]c5c4)[nH]c3c2)CC1 , readout=growth) returns 28.9

// Cc1nn(-c2ccc(F)cc2)c2ncnc(Nc3ccc(NC(=O)Nc4ccc(Cl)c(C(F)(F)F)c4)cc3)c12 : growth value = 61.1

The recorded growth for O=c1nc2oc3ccc4ccccc4c3cc-2s1 is 10.8

Measured growth, COc1ccc(S(=O)(=O)N2CC3(COC3)C2)cc1NC(=O)c1[nH]c(C)c2c1CCCCC2=O : 46.5

Nc1ccn(-c2ccc(Br)cc2)c(=O)n1 yielded growth of 119

Briefly, growth measured for O=C(CCN1C(=O)/C(=C/c2ccc(Cl)cc2)SC1=S)NCCCN1CCOCC1 : 97.5
